# System: PC-3
# TEST_DESCRIPTION: MTT in vitro antiproliferative assay, PC-3
# Assay type: cell-based
# STATED_CONDITIONS: Homo sapiens; PC-3, MTT, 48 h drug exposure; read-out: GI50
REPORTED_PROPERTY: GI50 (µM)

Examples from the recorded data:
> print(dat)
                                   molecule  reported.property  observed
1  COc1cc(Cc2nnc3sc(/C=C/c4ccc(Cl)cc4)nn23)c(S(=O)(=O)N(C(C)C)C(C)C)cc1OC [Compound 10a]               GI50         2
2  COc1cc(Cc2nnc3sc(/C=C/c4ccc(F)cc4)nn23)c(S(=O)(=O)N(C(C)C)C(C)C)cc1OC [Compound 10b]               GI50        31
3  CCN(CC)S(=O)(=O)c1cc(OC)c(OC)cc1Cc1nnc2sc(/C=C/c3ccc(F)cc3)nn12               GI50        42
4  COc1cc(Cc2nnc3sc(-c4cc([N+](=O)[O-])ccc4[N+](=O)[O-])nn23)c(S(=O)(=O)N(C)C)cc1OC               GI50         5
5  CCN(CC)S(=O)(=O)c1cc(OC)c(OC)cc1Cc1nnc2sc(/C=C/c3ccc([N+](=O)[O-])cc3)nn12               GI50        30
6  CCN(CC)S(=O)(=O)c1cc(OC)c(OC)cc1Cc1nnc2sc(-c3cccc(Cl)c3)nn12               GI50        25
7  COc1cc(Cc2nnc3sc(C=Cc4ccc(F)cc4)nn23)c(S(=O)(=O)N(C)C)cc1OC               GI50        14
8  COc1cc(Cc2nnc3sc(-c4ccc([N+](=O)[O-])cc4)nn23)c(S(=O)(=O)N(C(C)C)C(C)C)cc1OC               GI50        23

P: CCN(CC)S(=O)(=O)c1cc(OC)c(OC)cc1Cc1nnc2sc(-c3ccc([N+](=O)[O-])cc3)nn12
Q: COc1cc(Cc2nnc3sc(-c4cccc(Cl)c4)nn23)c(S(=O)(=O)N(C(C)C)C(C)C)cc1OC
R: CCN(CC)S(=O)(=O)c1cc(OC)c(OC)cc1Cc1nnc2sc(/C=C/c3ccc(Cl)cc3)nn12
S: CCN(CC)S(=O)(=O)c1cc(OC)c(OC)cc1Cc1nnc2sc(-c3ccc(Cl)cc3)nn12
T: CCN(CC)S(=O)(=O)c1cc(OC)c(OC)cc1Cc1nnc2sc(-c3ccc(F)cc3)nn12
Sort low-to-high on GI50, please. Returns: the labels arranged in the requested order.
R, Q, S, P, T

a: COc1cc(Cc2nnc3sc(-c4ccc(F)cc4)nn23)c(S(=O)(=O)N(C(C)C)C(C)C)cc1OC
b: CCN(CC)S(=O)(=O)c1cc(OC)c(OC)cc1Cc1nnc2sc(/C=C/c3cccc([N+](=O)[O-])c3)nn12
Of a versus b , which is the one with smaller reported GI50? Reply with the label of the item you choose.
a
